Target Of Assay: Carbonic anhydrase 2 (Homo sapiens, UniProt P00918)
Protocol Description: Inhibition of recombinant human CA2 pre-incubated for 15 mins by phenol red dye based stopped flow CO2 hydration assay
log10(Ki): recorded values
Reported Property: log10(Ki) (log10 of the value in nM)

>>> observed("NS(=O)(=O)c1ccc(CCN(Cc2ccccc2)C(=O)c2ccc(-c3cssc3=S)cc2)cc1")
2.68
>>> observed("NS(=O)(=O)c1ccc(CCN(Cc2csc3ccccc23)C(=O)c2ccc(-c3cssc3=S)cc2)cc1")
3.39
>>> observed("NS(=O)(=O)c1ccc(CCN(Cc2ccc(Br)cc2)C(=O)c2ccc(-c3cssc3=S)cc2)cc1")
3.56
>>> observed("NS(=O)(=O)c1ccc(CCN(Cc2ccc(F)cc2)C(=O)c2ccc(-c3cssc3=S)cc2)cc1")
2.78
>>> observed("CSc1ccc(CN(CCc2ccc(S(N)(=O)=O)cc2)C(=O)c2ccc(-c3cssc3=S)cc2)cc1")
3.98

---

pKi: recorded values
Target Of Assay: Carbonic anhydrase 1 (Homo sapiens)
Sequence (P00915 whole entry): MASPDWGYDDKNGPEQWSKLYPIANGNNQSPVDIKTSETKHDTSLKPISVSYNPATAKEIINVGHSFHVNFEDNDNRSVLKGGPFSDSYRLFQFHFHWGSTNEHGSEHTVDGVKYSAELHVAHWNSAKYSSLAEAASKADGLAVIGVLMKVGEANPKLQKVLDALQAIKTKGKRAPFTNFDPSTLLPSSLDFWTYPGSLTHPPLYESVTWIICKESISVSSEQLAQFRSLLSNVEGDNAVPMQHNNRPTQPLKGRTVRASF
Protocol Description: Inhibition of recombinant human CA1 pre-incubated for 15 mins by phenol red dye based stopped flow CO2 hydration assay
pKi: −log10 of the molar value.
Reported Property: pKi

>>> observed("NS(=O)(=O)c1ccc(CCN(Cc2ccc(Br)cc2)C(=O)c2ccc(-c3cssc3=S)cc2)cc1")
5.11
>>> observed("NS(=O)(=O)c1ccc(CCN(Cc2ccc(F)cc2)C(=O)c2ccc(-c3cssc3=S)cc2)cc1")
5.27
>>> observed("NS(=O)(=O)c1ccc(CCN(Cc2ccc(Cl)cc2)C(=O)c2ccc(-c3cssc3=S)cc2)cc1")
5.26
>>> observed("COc1cc([N+](=O)[O-])ccc1CN(CCc1ccc(S(N)(=O)=O)cc1)C(=O)c1ccc(-c2cssc2=S)cc1")
5.17
>>> observed("N#CCCN(CCc1ccc(S(N)(=O)=O)cc1)C(=O)c1ccc(-c2cssc2=S)cc1")
6.37
>>> observed("NS(=O)(=O)c1ccc(CCN(Cc2ccc([N+](=O)[O-])cc2)C(=O)c2ccc(-c3cssc3=S)cc2)cc1")
5.13
>>> observed("COc1ccc(CN(CCc2ccc(S(N)(=O)=O)cc2)C(=O)c2ccc(-c3cssc3=S)cc2)cc1")
5.65
>>> observed("CSc1ccc(CN(CCc2ccc(S(N)(=O)=O)cc2)C(=O)c2ccc(-c3cssc3=S)cc2)cc1")
5.14
>>> observed("CN(C)c1ccc(CN(CCc2ccc(S(N)(=O)=O)cc2)C(=O)c2ccc(-c3cssc3=S)cc2)cc1")
5.37
>>> observed("NS(=O)(=O)c1ccc(CCN(CCc2ccccc2)C(=O)c2ccc(-c3cssc3=S)cc2)cc1")
5.36

---

Target Of Assay: UniProt:Q16790
Protocol Description: Inhibition of recombinant human CA9 pre-incubated for 15 mins by phenol red dye based stopped flow CO2 hydration assay
Rule: Ki below 40 nM gives class 1, anything at or above gives class 0.

>>> cat("COc1ccc(CN(CCc2ccc(S(N)(=O)=O)cc2)C(=O)c2ccc(-c3cssc3=S)cc2)cc1")
"class 0"
>>> cat("COc1ccc(CN(CCc2ccc(S(N)(=O)=O)cc2)C(=O)c2ccc(-c3cssc3=S)cc2)cc1OC")
"class 1"
>>> cat("NS(=O)(=O)c1ccc(CCN(CCc2ccccc2)C(=O)c2ccc(-c3cssc3=S)cc2)cc1")
"class 0"
>>> cat("NS(=O)(=O)c1ccc(CCN(Cc2cccc3ccccc23)C(=O)c2ccc(-c3cssc3=S)cc2)cc1")
"class 1"
>>> cat("COc1cc([N+](=O)[O-])ccc1CN(CCc1ccc(S(N)(=O)=O)cc1)C(=O)c1ccc(-c2cssc2=S)cc1")
"class 1"
>>> cat("NS(=O)(=O)c1ccc(CCNCc2cccc3ccccc23)cc1")
"class 0"
>>> cat("CN(C)c1ccc(CN(CCc2ccc(S(N)(=O)=O)cc2)C(=O)c2ccc(-c3cssc3=S)cc2)cc1")
"class 1"
>>> cat("NS(=O)(=O)c1ccc(CCN(Cc2ccc(Cl)cc2)C(=O)c2ccc(-c3cssc3=S)cc2)cc1")
"class 1"
>>> cat("NS(=O)(=O)c1ccc(CCN(Cc2ccc([N+](=O)[O-])cc2)C(=O)c2ccc(-c3cssc3=S)cc2)cc1")
"class 1"
>>> cat("NS(=O)(=O)c1ccc(CCN(Cc2ccccc2)C(=O)c2ccc(-c3cssc3=S)cc2)cc1")
"class 0"
>>> cat("NS(=O)(=O)c1ccc(CCN(Cc2ccc(F)cc2)C(=O)c2ccc(-c3cssc3=S)cc2)cc1")
"class 0"
>>> cat("N#CCCN(CCc1ccc(S(N)(=O)=O)cc1)C(=O)c1ccc(-c2cssc2=S)cc1")
"class 1"
>>> cat("NS(=O)(=O)c1ccc(CCN(Cc2ccc(Br)cc2)C(=O)c2ccc(-c3cssc3=S)cc2)cc1")
"class 1"
>>> cat("NS(=O)(=O)c1ccc(CCN(Cc2csc3ccccc23)C(=O)c2ccc(-c3cssc3=S)cc2)cc1")
"class 1"
>>> cat("CSc1ccc(CN(CCc2ccc(S(N)(=O)=O)cc2)C(=O)c2ccc(-c3cssc3=S)cc2)cc1")
"class 0"
